Tested on: SK-BR-3
method_description: Antiproliferative activity against human SKBR3 cells incubated for 5 days by SRB assay
Format: functional, cell-based
condition_label: SK-BR-3, 120 h
Numbered stars: 1 amine (or outer) side, 2 acyl side, 3 side chain; on linkers, the order of the positions; unused ones are H or OH. Square brackets hold non-standard residues; d marks the D form. Peptide text beside a SMILES is read from it. * marks the point of attachment. X2 = CCCC[C@@H](O)C[C@@H](C)C[C@H](N[*:1])C(=O)[*:2]; X1 = CCCCCC[C@@H](C)C[C@H](N[*:1])C(=O)[*:2]; NH((S)CH(Me)CH2NHC2H4OH) = C[C@@H](CNCCO)N*; X7 = O=C([C@H](CCCCO)N[*:1])[*:2]; Aib = CC(C)(N)C(=O)O; Butyryl = CCCC(=O)*; βAla = NCCC(=O)O
quantity_kind: IC50 (nM)
Answers are plain numbers, in nM.

CCCCCC[C@@H](C)C[C@H](NC(=O)C(C)(C)NC(=O)C(C)(C)NC(=O)[C@H](CCCCO)NC(=O)[C@@H]1CCCN1C(=O)CCC)C(=O)N[C@@H](CC(C)C)C(=O)NC(C)(C)C(=O)N[C@@H](CC(C)C)C(=O)NCCC(=O)N[C@@H](C)CNCCO (Butyryl-P[X7][Aib][Aib][X1]L[Aib]L[βAla]-{NH((S)CH(Me)CH2NHC2H4OH)}) | 59
CCCCCC[C@@H](C)C[C@H](NC(=O)C(C)(C)NC(=O)C(C)(C)NC(=O)[C@H](CCCC(O)CCCC)NC(=O)[C@@H]1CCCN1C(=O)CCC)C(=O)N[C@@H](CC(C)C)C(=O)NC(C)(C)C(=O)N[C@@H](CC(C)C)C(=O)NCCC(=O)N[C@@H](C)CNCCO (mixture of isomers) | 100

Now for a further compound.
Short answer for CCCCCC[C@@H](C)C[C@H](NC(=O)C(C)(C)NC(=O)C(C)(C)NC(=O)[C@H](C[C@H](C)C[C@H](O)CCCC)NC(=O)[C@@H]1CCCN1C(=O)CCC)C(=O)N[C@@H](CC(C)C)C(=O)NC(C)(C)C(=O)N[C@@H](CC(C)C)C(=O)NCCC(=O)N[C@@H](C)CNCCO (Butyryl-P[X2][Aib][Aib][X1]L[Aib]L[βAla]-{NH((S)CH(Me)CH2NHC2H4OH)}) : IC50 was 327

Values from ChEMBL document CHEMBL4350995
